assay.comment: cAMP induction in EP2, EP4, beta2-AR and parental cells, confirmation, counter-screen for EP2 modulator project, cell-based, five parallel assays, C6 glioma, HEK293 (AID 1080)
assay.context: cAMP HTRF induction, measured here: EP4 receptor counter-screen, percent of 1 uM PGE2 response, plus low (about EC15) PGE2 agonist
The campaign covered roughly 1,300 compounds. About 640 (49%) were called active. The set was probably picked from earlier hits. The list is a sample of the results.
Reported cAMP induction values are given for each entry in this list.
Give a bare numeral; the unit % is implied.

1. CC(C)(C)c1nc2ccccc2c(=O)n1N1C(=O)c2ccccc2C1=O; -2.16
2. Cc1ccccc1-c1n[nH]c(=S)n1/N=C/c1ccc(-c2ccccc2Br)o1; 18.4
3. CSc1ncnc2sc(C)c(C)c12; 5.89

Attention now shifts to the item below.
Recorded result, `CN(C)Cc1ccc(F)cc1Sc1cc(Cl)ccc1Cl` , cAMP induction: -1.47

Data provenance is PubChem BioAssay AID1080.
